Experiment: Photostationary state (PSS) and lambda max under simulated sunlight (solar simulator)
Format: physicochemical
Conditions: absorbance at photostationary state, simulated sunlight (solar simulator); 2×10^−5 M solution
outcome_measure: PSS (SS)
One number for each entry.

smiles_input=CC(C)(C)c1ccc(-c2oc3cc(OCCN4CCOC4=O)c(OCCN4CCOC4=O)cc3c2C2=C(c3cc(-c4cc5c(s4)C(C)(C)CCC5(C)C)sc3-c3cc4c(s3)C(C)(C)CCC4(C)C)C(F)(F)C(F)(F)C2(F)F)cc1 outcome_measure="PSS (SS)" assay_result=0.45
smiles_input=COc1cc2oc(-c3ccc(C(C)(C)C)cc3)c(C3=C(c4cc(-c5cccs5)sc4-c4cccs4)C(F)(F)C(F)(F)C3(F)F)c2cc1OC outcome_measure="PSS (SS)" assay_result=0.269

// below: PSS (SS) requested for another molecule
INPUT: Name the recorded PSS (SS) for COc1ccc2oc(-c3ccc(C(C)(C)C)cc3)c(C3=C(c4cc(-c5cc6c(s5)C(C)(C)CCC6(C)C)sc4-c4cc5c(s4)C(C)(C)CCC5(C)C)C(F)(F)C(F)(F)C3(F)F)c2c1 .
OUTPUT: 0.306
